Reference source for all entries: patent US5831003A

In this section, each of the substances is paired with its reported Absorbance, 280 nm 1M NaCl Eluate.
molecular target: α-thrombin (Homo sapiens, UniProt P00734); construct: α-Thrombin is the active form of the plasma serine protease zymogen, prothrombin; purchased Enzyme Research Labs (South Bend, Ind.); experiment: Confirmatory binding assay in column chromatographic format, peptides synthesized on A-Totda-Toyopearl; conditions: 100 μg α-thrombin applied; integration of A280
Ends that are not written are not given here.

substance	Absorbance, 280 nm 1M NaCl Eluate
VFPYAW (not fully specified (C-terminus)) [peptide synthesized on A-Totda-Toyopearl resin]	0.18
FEPANP (not fully specified (C-terminus)) [peptide synthesized on A-Totda-Toyopearl resin]	0.00

----------
target: α-thrombin (Homo sapiens, UniProt P00734); construct: α-Thrombin is the active form of the plasma serine protease zymogen, prothrombin; purchased Enzyme Research Labs (South Bend, Ind.); assay: Confirmatory binding assay in column chromatographic format, peptides synthesized on A-Totda-Toyopearl; details: 100 μg α-thrombin applied; integration of A280
Ends that are not written are not given here.

substance	Absorbance, 280 nm 1M NaCl Eluate
PFPYGW (not fully specified (C-terminus)) [peptide synthesized on A-Totda-Toyopearl resin]	np
PFAPTL	np
PFPYAW (not fully specified (C-terminus)) [peptide synthesized on A-Totda-Toyopearl resin]	np
